Origin of values: patent US10975056B2

Give pIC50 for every item shown.
# target-of-assay: DNMT3B (Homo sapiens (Human), UniProt Q9UBC3)
# assay-method-text: DNMT3B breaklight assay
# Type: biochemical
# cond: read-out: DNMT3B Breaklight IC50
pIC50: −log10 of the molar value.

Dear colleague, could you please provide pIC50 for the molecules listed below?
1. CCc1c(C#N)c(SC(C(N)=O)c2ccccc2)nc(N2CCC(O)CC2)c1C#N (centres unmarked)
2. CCc1c(C#N)c(SC(C(N)=O)c2ccccc2)nc(N2CCCNCC2)c1C#N (centres unmarked)
3. CCc1c(C#N)c(SCc2ccc(=O)[nH]c2)nc(N(C)C)c1C#N
4. CN(C)c1nc(SC(C(N)=O)c2ccccc2)c(C#N)c(C2CC2)c1C#N (centres unmarked)
5. CCc1c(C#N)c(SC(C(N)=O)c2ccc(Cl)cc2)nc(N(C)C)c1C#N (centres unmarked)
6. CCc1c(C#N)c(N)nc(SC(C(N)=O)c2ccccc2)c1C#N (centres unmarked)
7. CCc1c(C#N)c(SC(C(N)=O)c2ccccc2)nc(N2CCCN(CC(C)O)CC2)c1C#N (centres unmarked)

1: < 3.30; 2: < 3.30; 3: < 3.60; 4: < 3.30; 5: < 3.30; 6: < 3.30; 7: < 3.30
